Data provenance: PubChem BioAssay (NCI)

Test: NCI Yeast Anticancer Drug Screen. Data for the rad50 strain (AID 155);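 further: 0% = growth of vehicle-only cultures of the same strain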
Conditions: S. cerevisiae rad50 strain growth inhibition; at 50.0 µM; active compounds read high
This is part of a sample that, as a whole, favours compounds with a hit. Of some 79,000 tested, about 15% had one in any assay.
Could you please classify the records by growth inhibition using these ranges: group 1 (below 20%), group 2 (20% to below 80%), group 3 (80% or more)

input: Lab note: sort CCOc1cnn(-c2ccccc2)c(=O)c1SCc1ccc(Cl)c(Cl)c1 into the matching growth inhibition band.
output: group 2

Continuing:
input: # bin label for COc1cc2c(cc1OC)NCC1COc3c(ccc(OC)c3OC)C1=N2 (configuration not stated)
output: group 1

input: Form: Item = CC1C=CC(C)C2C(=O)C3C(C)C=CC(C)C3C(=O)C12 (configuration not stated) ; Class = ?
output: group 1

###

Below is a list of entries, each paired with its recorded growth inhibition value.
Assay: NCI Yeast Anticancer Drug Screen. Data for the rad50 strain (AID 155);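 further: 0% = growth of vehicle-only cultures of the same strain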
Conditions: S. cerevisiae rad50 strain growth inhibition; at 50.0 µM (retest, dose inferred, filed as 5.0); active compounds read high
The panel holds about 79,000 compounds, 15% with a hit somewhere; the sample as a whole holds those more often.
The reply should be a number in %, with the unit left off.

input: Note down growth inhibition recorded for CCCCNC(=O)OCc1c(COC(=O)NCCCC)c(-c2ccc(Cl)c(Cl)c2)n2c1CCC2
output: 98

***
input: Look up and state reported growth inhibition for O=C(CCCCCCCCCCc1ccccc1)c1ccc(Cl)cc1
output: 76

input: Report growth inhibition, nothing else, for this compound: O=C1CSC(=S)N1c1ccc(F)cc1F
output: 86

input: Read the entry S=c1[nH]c(-c2ccccc2)cs1 and write its reported growth inhibition.
output: 77

###

Assay: NCI Yeast Anticancer Drug Screen. Data for the mec2-1 strain (AID 157)
Settings: S. cerevisiae mec2-1 strain, at 5.0 µM (retest, dose inferred, filed as 0.5)
Compounds without any hit were thinned out: in the full panel of roughly 79,000, 15% have a hit. The source made the active and inactive calls. Rule as the data show it: active = growth inhibition above about 70%; inactive = the rest.
Use one of these outcomes when replying: class 1 for active, class 0 for inactive

Check out these entries, answers already filled in.
input: Kindly provide the recorded test outcome for the following molecule: O=C1C=C(c2ccccc2)S(=O)(=O)c2c(O)cccc21
output: class 1

input: Look up the recorded call for COc1cc(C=Nc2ccc(Cl)cc2)ccc1OC(=O)c1ccccc1 in this test.
output: class 0

input: What classification did COc1cc(-c2oc(C=Nc3ccccc3)c([N+](=O)[O-])c2-c2ccc(O)c(OC)c2)ccc1O end up with in this test?
output: class 0

New cases:
input: Can you look up the reported call for O=C(Nc1cccc(Cl)c1)OCCN(CCOC(=O)Nc1cccc(Cl)c1)C(=O)Nc1cccc(Cl)c1 for me?
output: class 0

input: How was CC1=C(C(=O)Nc2cccc(Cl)c2)C(c2ccc([N+](=O)[O-])cc2)C(C(=O)Nc2cccc(Cl)c2)=C(C)N1 classified in this test?
output: class 0

input: Fill in: this test's call for CN(C)CCCN=c1c2ccccc2n(O)c2ccccc12 is ___
output: class 0

###

Experiment: NCI Yeast Anticancer Drug Screen. Data for the sgs1 mgt1 strain (AID 161);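 further: 0% = growth of cultures given vehicle only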
Conditions: S. cerevisiae sgs1 mgt1 strain, at 50.0 µM (retest, dose inferred, filed as 5.0)
Compounds without any hit were thinned out: in the full panel of roughly 79,000, 15% have a hit. The source made the active and inactive calls. Rule as the data show it: active = growth inhibition above about 70%; inactive = the rest.
Hi! Could you answer with just one of these? active, inactive

Please review the following examples before continuing.
input: Could you check what this test reported for O=C(O)COc1cc(Br)cc(Br)c1-c1ccccc1 ?
output: inactive

input: Please state the recorded outcome for this compound: CCCCCC/C=C/C#CCCCCCCCC(=O)O
output: inactive

input: Please share the test call associated with CCOC(=O)Nc1cc2c(cn1)[nH]c1ccccc12 .
output: inactive

Others:
input: Which outcome was entered for the compound O=c1nc(-c2ccccc2)cc(-c2ccccc2O)[nH]1 in this test?
output: inactive

input: Kindly provide the recorded test outcome for the following compound: CCCCCCCN1C(=O)c2ccccc2S1(=O)=O
output: active

input: What classification did CN(C)CC1CC/C(=C\c2ccc(Cl)c(Cl)c2)C1=O (stereo unspecified) end up with in this test?
output: active

input: Tell me the recorded outcome of this test for CC(C)CCCC(C)C1CCC2C3C=CC4=CCCCC4(C)C3CCC12C (stereo unspecified) .
output: active

input: // return assay outcome for CCCCN(C(=O)c1ccccc1)C1CCC(=O)c2[nH]c3ccccc3c21 (stereo unspecified)
output: inactive

input: Just curious, what result did Cc1cc(Cc2ccccc2)ccc1O get here?
output: inactive

input: How did this test come out for N#C/C(=C\NC(=S)C(N)=S)c1nc2ccccc2s1 ?
output: active

input: Field: outcome | Entry: OC1(c2ccccc2)CN(CCl)CC(c2ccccc2)O1 (stereo unspecified)
output: inactive
